Tested on: β-adrenergic receptors
measurement_protocol: isoproterenol-induced intracellular cAMP synthesis in rat C6 glioma
Type: cell-based
conditions: cAMP induced by 5 μM (−) isoproterenol, 30 min; read-out: I50
endpoint_name: IC50 (µM)

- CC(C)n1cnc2c(NCc3ccccc3)nc(NCCCN)nc21: 45
- CC(C)C(CO)Nc1nc(NCc2ccccc2)c2ncn(C(C)C)c2n1 (stereo not drawn): 45
- CCCCCCNc1nc(NC(CO)c2ccccc2)c2ncn(C(C)C)c2n1 (stereo not drawn): 15

----------
Test system: T-lymphoblastic leukemia cell line CEM
measurement_protocol: MTT cytotoxicity assay, CEM
Assay type: cell-based, human
conditions: 72 hours (TCS50 in the method)
Here, each record is paired with measured log10(IC50) data.
endpoint_name: log10(IC50) (log10 of the value in µM)

- CC[C@H](CO)Nc1nc(NCc2ccc(O)c(O)c2)c2ncn(C(C)C)c2n1: 0.90
- CC[C@@H](CO)Nc1nc(N(C)CCc2ccc(O)c(O)c2)c2ncn(C(C)C)c2n1: 1.56
- CC(C)n1cnc2c(NC(CO)c3ccccc3)nc(NC[C@H](C)O)nc21 (stereo partly drawn): 0.90
- CC(C)n1cnc2c(NC(CO)c3ccccc3)nc(NCCO)nc21 (racemic): 1.26
- CC[C@H](CO)Nc1nc(N(C)CCc2ccc(O)c(O)c2)c2ncn(C(C)C)c2n1: 0.78
- CC[C@@H](CO)Nc1nc(NC(CO)c2ccccc2)c2ncn(C(C)C)c2n1 (stereo partly drawn): 1.30
- CC(C)n1cnc2c(NC(CO)c3ccccc3)nc(NC[C@@H](C)O)nc21 (stereo partly drawn): 1.85
- CC(C)n1cnc2c(NCc3ccc(O)c(O)c3)nc(NC[C@@H](C)O)nc21: 1.54
- CC(C)n1cnc2c(NCc3ccc(O)c(O)c3)nc(NC[C@H](C)O)nc21: 1.08
- CC(C)n1cnc2c(N(C)CCc3ccc(O)c(O)c3)nc(NCCO)nc21: 1.43
- CC[C@@H](CO)Nc1nc(NCc2ccc(O)c(O)c2)c2ncn(C(C)C)c2n1: 1.71
- CC(C)n1cnc2c(N(C)CCc3ccc(O)c(O)c3)nc(NC[C@H](C)O)nc21: 1.63
- CC[C@H](CO)Nc1nc(NC(CO)c2ccccc2)c2ncn(C(C)C)c2n1 (stereo partly drawn): 1.18
- CC(C)n1cnc2c(N(C)CCc3ccc(O)c(O)c3)nc(NC[C@@H](C)O)nc21: 1.11
- CC(C)n1cnc2c(NCc3ccc(O)c(O)c3)nc(NCCO)nc21: 1.54
- CC(C)[C@H](CO)Nc1nc(N(C)CCc2ccc(O)c(O)c2)c2ncn(C(C)C)c2n1: 0.90
- CCCCCCNc1nc(N(C)CCc2ccc(O)c(O)c2)c2ncn(C(C)C)c2n1: 1.52
- CCCCCCNc1nc(NCc2ccc(O)c(O)c2)c2ncn(C(C)C)c2n1: 1.34
